Please go through the items and note down their inhibition.
Target: 6-phosphogluconate dehydrogenase, decarboxylating (Homo sapiens) (UniProt P52209)
Sequence (P52209 whole entry, looked up): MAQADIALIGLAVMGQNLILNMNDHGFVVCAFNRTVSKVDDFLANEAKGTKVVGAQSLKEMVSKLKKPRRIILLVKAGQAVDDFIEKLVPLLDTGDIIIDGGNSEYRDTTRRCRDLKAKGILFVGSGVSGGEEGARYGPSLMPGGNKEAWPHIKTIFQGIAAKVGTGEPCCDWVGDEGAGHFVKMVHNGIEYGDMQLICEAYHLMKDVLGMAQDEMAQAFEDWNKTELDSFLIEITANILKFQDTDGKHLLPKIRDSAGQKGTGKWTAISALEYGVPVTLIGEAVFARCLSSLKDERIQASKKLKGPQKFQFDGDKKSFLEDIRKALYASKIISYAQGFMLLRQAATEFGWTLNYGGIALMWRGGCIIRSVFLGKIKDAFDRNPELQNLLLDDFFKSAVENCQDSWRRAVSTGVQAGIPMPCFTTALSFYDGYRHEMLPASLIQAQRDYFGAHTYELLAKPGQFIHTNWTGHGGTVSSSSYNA
Assay: 6PGD enzyme inhibitors, primary screen, biochemical, human, recombinant enzyme, NADPH absorbance (AID 1159550)
Settings: recombinant 6PGD, NADPH absorbance 341 nm; at 10 µM; stronger effect = higher value
Calls of active or inactive are those of the source.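 The calls were made as follows: active = at least 20% inhibition of 6-phosphogluconate dehydrogenase activity; inactive = the rest.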

GET /values?readout=inhibition&item= CC(C)CCCC1(C)C=Cc2c(O)c3c(c(CCC(C)C)c2O1)OC12C(CC4CC1C(C)(C)OC2(CCC(C)C(=O)O)C4O)C3=O (stereo unspecified)
0.442% (inactive)

So what's the measured inhibition for this one? ClC1=C(Cl)[C@@]2(Cl)[C@@H]3[C@H]4C[C@@H]([C@H]5O[C@@H]45)[C@H]3[C@@]1(Cl)C2(Cl)Cl
-14% (inactive)

Which inhibition is reported for this compound? NC(N)=NOCC[C@H](N)C(=O)O
12.8% (inactive)

Looking for the measured inhibition of NC(=O)c1cc([N+](=O)[O-])cc([N+](=O)[O-])c1 , can you help?
8.1% (inactive)

Given CC(Cc1ccc(O)cc1)NCC(O)c1cc(O)cc(O)c1 (stereo unspecified) , state its recorded inhibition.
-6.23% (inactive)

Consider the compound CC(C)=CCC[C@]1(C)C=Cc2c(O)c3c(c(CC=C(C)C)c2O1)O[C@]12C(=C[C@@H]4C[C@H]1C(C)(C)O[C@@]2(C/C=C(/C)C(N)=O)C4=O)C3=O and give its measured inhibition.
-5.75% (inactive)

---

Test: sensitizers of A549 cells to miR-34 induction, primary screen, imaging, A549 dox-inducible miR-34, nuclei and caspase counts (AID 1347080)
Details: A549 miR-34 inducible, Hoechst nuclei count, 48 h; measured here: relative caspase fold change +Dox/-Dox
Answer each item with its documented fold change.
Returns: the value as a bare number; no unit string appended.

Param item = O=C1OCCN1/N=C/c1ccc([N+](=O)[O-])o1 ; retrieve measured fold change.
1.85

What does the record list as fold change for OC[C@H]1O[C@@H](n2cnc3cc(Cl)c(Cl)cc32)C(O)[C@H]1O (stereo partly specified) ?
0.917

Requested read-out: fold change. Entry: O=C(CCCN1CCC(n2c(=O)[nH]c3ccccc32)CC1)c1ccc(F)cc1
1.64

Which fold change is reported for this compound? CN1C(=O)CN=C(c2ccccc2)c2cc(Cl)ccc21
1.74

// query fold change value for entry CN1C(=O)COc2c(C(=O)NC3CN4CCC3CC4)cc(Cl)cc21 (stereo unspecified)
1.27

For the compound CCCCC/C=C\C/C=C\C/C=C\C/C=C\CCCC(=O)NCCOP(=O)(O)O , what fold change is on record?
0.95

---

Hi there, I'd appreciate the recorded activity remaining for every entry that follows.
Test system: Aerobactin synthetase IucA (Klebsiella pneumoniae hvKP1)
Experiment: Biochemical IucA enzyme inhibition primary screen of the Spectrum library (AID 1346200);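 also: 100% = wells without compound and 0% = wells lacking enzyme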
Conditions: malachite green pyrophosphate, A620, at 8 µM, stronger effect = lower value
Counter-ions that a name gives are not always drawn. Residues, ends and D or L forms follow the SMILES beside them. *: point of attachment. Tfa = O=C(C(F)(F)F)*
A number alone suffices; assume %.

# input molecule: O=c1[nH]cnc2[nH]ncc12 ; wanted: its activity remaining
99.3

Return reported activity remaining; argument: O=S(=O)(O)CCS
118

What does the record list as activity remaining for COc1cc2c(cc1OC)[C@@H]1C(=O)c3ccc(OC)c(CC=C(C)C)c3O[C@@H]1CO2 ?
109

May I ask what activity remaining has been recorded for CCN1C[C@@]2(COC)C3[C@@H](OC)[C@H]4[C@@H]1[C@]3(C(OC)C[C@H]2O)C1C[C@@]2(O)[C@H](OC(=O)c3ccccc3)C1[C@]4(OC(C)=O)[C@@H](O)[C@@H]2OC (some centres not stated) ?
113

Given C=CCCCCCCCCCCCc1ccco1 , state its recorded activity remaining.
99.3

Form field: reported activity remaining of Nc1nc2c(ncn2COCCO)c(=O)[nH]1
118

Can you share its activity remaining? I mean this molecule: CCOC(=O)C1=C(O)C(=O)N(Cc2ccccc2)C1
96.2

Which value of activity remaining has been reported for CC1=C2[C@H]3OC(=O)[C@@H](C)[C@@H]3CC[C@@]2(C)C=CC1=O in the records?
93.8

Need activity remaining of c1ccc2c(c1)CN1CCCC1=N2 , thanks.
99.8

Entry c1ccc2[nH]c(-c3cscn3)nc2c1 has what activity remaining?
111

Endpoint output: activity remaining of OC(CCN1CCCCC1)(c1ccccc1)C1CC2C=CC1C2 (configuration not stated) . Value?
87.7

Request the reported activity remaining associated with CC1CCC(NC(=O)N(CCCl)N=O)CC1 (configuration not stated)
106

So what's the measured activity remaining for this one? CC(C)C(NC(=O)C(Cc1ccc(O)cc1)NC(=O)C(NC(=O)C(F)(F)F)C(C)C)C(=O)O (stereo not drawn) (Tfa-Val-Tyr-Val-OH; configuration not given here)
105

I'd like to know its activity remaining. The molecule in question is CC(C)c1c(O)ccc2c1CCC1[C@@](C)(CO)CCC[C@]21C (some centres not stated)
101

Would you kindly share the measured activity remaining for CC(N)Cc1ccc(O)cc1 (configuration not stated) ?
111

Can you share its activity remaining? I mean this molecule: O=C(O)c1cc(=O)c2c(Cl)cc(Cl)cc2[nH]1
103

// activity remaining lookup, key: CCc1nc(N)nc(N)c1-c1ccc(Cl)cc1
108

Quick one: activity remaining for CN1CCN(CCCN2c3ccccc3Sc3ccc(Cl)cc32)CC1 ?
123

State the recorded activity remaining for this entry: C[n+]1cc2c3c(ccc2c2ccc4cc5c(cc4c21)OCO5)OCO3
97.5

Fill blank: measured activity remaining of the molecule COc1ccc2cc1Oc1ccc(cc1)C[C@H]1c3c(cc4c(c3Oc3cc5c(cc3OC)CCN(C)[C@@H]5C2)OCO4)CCN1C is ____.
115

Quick check: activity remaining of COc1ccc(-c2c(O)c3c(OC)c4c(cc3oc2=O)OC(C)(C)CC4)cc1 ?
99.1

Query: activity remaining; subject: CC1CCC2(OC1)OC1CC3C4CC[C@H]5C[C@@H](O)CC[C@]5(C)C4CC(=O)[C@]3(C)C1C2C (some centres not stated)
94.1

---

Kindly state remaining activity for each of the entries shown.
Test system: Aerobactin synthetase IucA (Klebsiella pneumoniae, hypervirulent)
Assay: IucA enzyme inhibition, biochemical, LOPAC library, absorbance readout (AID 1346212);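 also: 100% = no compound wells and 0% = no enzyme wells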
Details: IucA enzyme assay, absorbance (OD) readout; stronger effect = lower value; concentration not given here
Numeric answer only, unit % assumed.

Name the reported remaining activity value associated with the molecule C=C(C)[C@H]1Cc2c(ccc3c2O[C@@H]2COc4cc(OC)c(OC)cc4[C@@H]2C3=O)O1
78.1

What value of remaining activity has been reported for the following molecule? Cc1cc2c(cc1Cl)N(C(=O)Nc1cccc3ncccc13)CC2
103

What value of remaining activity has been recorded for this entry: COC(=O)[C@@H]1[C@H]2C[C@H]3c4[nH]c5ccccc5c4CCN3C[C@@H]2CC[C@@H]1O
124

Which remaining activity value belongs to O=c1c2ccccc2[nH]c(=S)n1CCN1CCC(=C(c2ccc(F)cc2)c2ccc(F)cc2)CC1 ?
119

Any idea what its remaining activity is? The molecule is CN(C)CCOC(c1ccccc1)c1ccccc1
100

Consider the molecule shown here: Cc1nc(N=Nc2ccc(S(=O)(=O)O)cc2S(=O)(=O)O)c(COP(=O)(O)O)c(C=O)c1O What is its recorded remaining activity?
106

// lookup remaining activity for N#CC(C#N)=C(N)/C(C#N)=C/c1ccc(O)cc1
117

Need remaining activity, item O=C(OCCN1CCCCC1)c1c[nH]c2ccccc12
102

May I ask what remaining activity has been recorded for O=C(O)c1ccccc1Nc1ccccc1 ?
108

---

System: Aerobactin synthetase IucA (Klebsiella pneumoniae hvKP1)
Test: Biochemical IucA enzyme inhibition primary screen of the Spectrum library (AID 1346200);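 also: 100% = wells without compound and 0% = wells lacking enzyme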
Conditions: malachite green pyrophosphate, A620, at 8 µM, stronger effect = lower value
recordedMetric: activity remaining (%)
Answer with a number only, understood to be in %.

Which activity remaining reading was recorded for the compound CCCC(C(=O)OCCN(CC)CC)(c1ccccc1)c1ccccc1 ?
105

Name the recorded activity remaining for CC(=O)Nc1cc([As](=O)(O)O)ccc1O .
107

# activity remaining lookup, item CCN1CCN(C(=O)NC(C(=O)NC2C(=O)N3C(C(=O)O)=C(CSc4nnnn4C)CSC23)c2ccc(O)cc2)C(=O)C1=O (stereo not drawn)
125

---

Experiment: HCT116 colon cancer cell growth inhibition, primary screen, CellTiter-Glo luminescence, NPC library (AID 1117342)
Conditions: at 20 µM (top of the series)
Please provide measured inhibition of viability for the entries that follow.
The response must be a number in % with no trailing unit.

Could you share which inhibition of viability value was measured for CC(Cc1ccc2c(c1)OCO2)NCC(O)c1ccc(O)c(O)c1 (stereo not given) ?
25.8

Item under review: NP(N)(=O)NC(=O)c1ccc(F)cc1 . Reported inhibition of viability?
-0.3

Entry Nc1ccccc1C(=O)OCC(O)CO (stereo not given) has what inhibition of viability?
-0.1

Entry COc1cc(N)c(Cl)cc1C(=O)NC1CN2CCC1CC2 (stereo not given) has what inhibition of viability?
15.8

Please give the measured inhibition of viability for this compound: COP(=S)(OC)SCN1C(=O)c2ccccc2C1=O
-8.5

Which inhibition of viability value is on record for Cc1cccc(C)c1NC(=O)CN1CCCC1=O ?
0.2

Can you share its inhibition of viability? I mean this compound: CCCC1CCCCN1 (stereo not given)
-0.2

What measured inhibition of viability goes with Clc1ccc(CCC(Cn2ccnc2)Sc2c(Cl)cccc2Cl)cc1 (stereo not given) ?
101

Can you look up the measured inhibition of viability of CN1C(=O)CCS(=O)(=O)C1c1ccc(Cl)cc1 (stereo not given) for me?
-1.4

# get_value(readout='inhibition of viability', item= C1CN(P2(N3CC3)=NP(N3CC3)(N3CC3)=NP(N3CC3)(N3CC3)=N2)CCO1 (stereo not given) )
30.4

Param item = COP(=S)(OC)Oc1ccc(S(=O)(=O)N(C)C)cc1 ; retrieve measured inhibition of viability.
4.9

Field request: inhibition of viability | item: O=C(O)c1cc(Oc2ccc(C(F)(F)F)cc2Cl)ccc1[N+](=O)[O-]
9.4

Query (compound): C[C@]12CC[C@H]3[C@@H](CC[C@@]45O[C@H]4C(O)=C(C#N)C[C@]35C)[C@H]1CC[C@H]2O ; field requested: inhibition of viability
11.5

Please give the measured inhibition of viability for this compound: COC[C@@H](NC(C)=O)C(=O)NCc1ccccc1
1.2

I am curious: what inhibition of viability value has been reported for NCC(CC(=O)O)c1ccc(Cl)cc1 (stereo not given) ?
-14.8

# query: inhibition of viability of entry CC(C)(O)C(Cl)(Cl)Cl
4.4

Can you share its inhibition of viability? I mean this compound: NCC1(CC(=O)O)CCCCC1
-3.4

Give the measured inhibition of viability of CCC(C(N)=O)N1CCCC1=O (stereo not given) .
-4.9

Which inhibition of viability is listed for CN1C2CCC(C)(C)C1CC(OC(=O)C(O)(c1cccs1)c1cccs1)C2 (stereo not given) ?
27.8

Could you share which inhibition of viability value was measured for C[N+]1(CCC(C(N)=O)(c2ccccc2)c2ccccc2)CCCCC1 ?
-21.6

Request the reported inhibition of viability associated with C[C@]12Cc3nonc3C[C@@H]1CC[C@@H]1[C@@H]2CC[C@@]2(C)[C@H]1CC[C@]2(C)O
1.5

Give its inhibition of viability value. Item: CC(=O)Nc1cc([As](=O)(O)O)ccc1O
-7.73

What value of measured inhibition of viability is listed for O=C(Nc1ccc(Br)cc1)c1cc(Br)cc(Br)c1O ?
98.2

Request the reported inhibition of viability associated with COC(=O)[C@@H](N)CCCN/C(N)=N/[N+](=O)[O-]
1.7

Return reported inhibition of viability; argument: Oc1cc(Cl)ccc1Oc1ccc(Cl)cc1Cl
95

Which inhibition of viability is reported for this compound? CNC(C)[C@@H](O)c1ccc(O)cc1 (stereo not given in full)
3.4

Given the compound COP(=O)(OC)C(O)C(Cl)(Cl)Cl (stereo not given) , what is its reported inhibition of viability?
-44.1

// lookup inhibition of viability for NCCc1cc(O)c(O)cc1O
15.3

Please look up its inhibition of viability: Fc1cc(Br)ccc1CBr
-1.5

Look up inhibition of viability for this compound: OC(c1ccccc1)(c1ccccc1)C1CCNCC1
-10.1

Please look up its inhibition of viability: CC(C)(C)NCC(O)c1cc(Cl)c(N)c(Cl)c1 (stereo not given)
24.9

// returns reported inhibition of viability for input Oc1c(Br)cc(Br)cc1Br
-18

Given the entry CN(C)CCc1ccc(O)cc1 , report its measured inhibition of viability.
4.7

Value lookup for inhibition of viability; key = O=C(CCCCl)c1ccc(F)cc1
3.2

Any idea what inhibition of viability was measured for O=C(CBr)Nc1ccc(Cl)cc1C(=O)c1ccccc1F ?
57.5

Fill blank: measured inhibition of viability of the compound CC(C)=C[C@@H]1[C@@H](C(=O)OCc2coc(Cc3ccccc3)c2)C1(C)C is ____.
12.9

Requested read-out: inhibition of viability. Entry: N[C@@H](Cc1ccc(Oc2cc(I)c(O)c(I)c2)c(I)c1)C(=O)O
39.6

Fill in: inhibition of viability of CCOC(=O)CC(SP(=S)(OC)OC)C(=O)OCC (stereo not given) is ___
-0.33

Fill in: inhibition of viability of CC(C)(C)c1ccc(O)cc1 is ___
7.9

For the compound shown here, O=C1C2CC=CCC2C(=O)N1SC(Cl)(Cl)Cl (stereo not given) , give the reported inhibition of viability.
99.3

Requested field: inhibition of viability. Item: CC(C)N(CCC(C(N)=O)(c1ccccc1)c1ccccn1)C(C)C (stereo not given)
-3.87

Param item = COc1ccc2c(C(=O)c3ccc(Cl)cc3)c(C)n(CC(=O)O)c2c1 ; retrieve measured inhibition of viability.
8

Can you share its inhibition of viability? I mean this compound: CC(C)=CC1C(C(=O)OCN2C(=O)C3=C(CCCC3)C2=O)C1(C)C (stereo not given)
38.2

# lookup: inhibition of viability of CC(Cc1ccccc1)NC=O (stereo not given)
8.8

Using the record for CCC(=O)O[C@@H]1C=C2CCC3C(CCC4(C)C3CC[C@@H]4OC(=O)CC)C2CC1 (stereo not given in full) , report its inhibition of viability.
21.4
